- Test system: HEp-2 (larynx cancer cells)
- EXPERIMENTAL_DETAILS: 48 h incubation with the salts: cell fluorescence, living cells, multiplication coefficient (Table 3)
- Assay type: cell-based, Human
- TEST_CONDITIONS: 48 hs, 50 mcg/ml
METRIC: Percentage of living cells /P %/ (%)
Give your result in % as a bare value.

COMPOUND	Percentage of living cells /P %/ [%]
CC1=C(CCC(=O)O)c2cc3[nH]c(cc4nc(cc5[nH]c(cc1n2)c(C(C)NC(CO)C(=O)O)c5C)C(C(C)NC(CO)C(=O)O)=C4C)c(C)c3CCC(=O)O.N=C(N)NCCC[C@H](N)C(=O)O.N=C(N)NCCC[C@H](N)C(=O)O (stereo not drawn) [PP/Ser/2 /Arg/2, l-arginine di/N-seryl/-protoporphyrinate]	25
CC1=C(CCC(=O)O)c2cc3[nH]c(cc4nc(cc5[nH]c(cc1n2)c(C(C)NC(C)C(=O)O)c5C)C(C(C)NC(C)C(=O)O)=C4C)c(C)c3CCC(=O)O.N=C(N)NCCC[C@H](N)C(=O)O.N=C(N)NCCC[C@H](N)C(=O)O (stereo not shown)	21

# input compound: CC1=C(CCC(=O)O)c2cc3[nH]c(cc4nc(cc5[nH]c(cc1n2)c(C(C)NC(CS)C(=O)O)c5C)C(C(C)NC(CS)C(=O)O)=C4C)c(C)c3CCC(=O)O.N=C(N)NCCC[C@H](N)C(=O)O.N=C(N)NCCC[C@H](N)C(=O)O (stereo not shown) ; wanted: its Percentage of living cells /P %/
60

Next up: CC1=C(CCC(=O)O)c2cc3[nH]c(cc4nc(cc5[nH]c(cc1n2)c(C(C)NC(CC(=O)O)C(=O)O)c5C)C(C(C)NC(CC(=O)O)C(=O)O)=C4C)c(C)c3CCC(=O)O.N=C(N)NCCC[C@H](N)C(=O)O.N=C(N)NCCC[C@H](N)C(=O)O (stereo not shown)
47
